Data credit: patent US10513521B2

Reported IC50 values follow for various molecules
biological target: ALK4 (Homo sapiens); assay: TR-FRET enzymatic ALK kinase assay, ALK4
Sequence (P36896 24-505): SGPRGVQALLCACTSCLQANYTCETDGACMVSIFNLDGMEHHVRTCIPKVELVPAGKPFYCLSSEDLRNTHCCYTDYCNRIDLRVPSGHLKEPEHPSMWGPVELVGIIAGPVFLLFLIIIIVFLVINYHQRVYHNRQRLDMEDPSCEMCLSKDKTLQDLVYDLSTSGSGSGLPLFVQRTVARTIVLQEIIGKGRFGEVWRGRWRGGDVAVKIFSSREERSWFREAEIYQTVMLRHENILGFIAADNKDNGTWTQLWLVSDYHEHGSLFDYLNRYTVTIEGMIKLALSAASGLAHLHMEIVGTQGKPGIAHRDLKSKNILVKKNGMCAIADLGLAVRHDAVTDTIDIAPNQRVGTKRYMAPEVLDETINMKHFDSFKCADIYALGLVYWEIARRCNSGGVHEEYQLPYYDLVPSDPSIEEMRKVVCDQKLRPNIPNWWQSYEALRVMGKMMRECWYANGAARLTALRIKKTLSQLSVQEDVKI
VALUE_TYPE: IC50

>  <MOLECULE>
C[C@@H]1CNC[C@H](C)N1c1ccc(-c2cnc3c(-c4cc(C(F)(F)F)cc(S(C)(=O)=O)c4)cnn3c2)cc1

>  <EXPERIMENTAL_VALUE>
> 10 µM

$$$$
>  <MOLECULE>
CC(O)c1cccc(-c2cnn3cc(-c4ccc(CCN5CCOCC5)cc4)cnc23)c1 (stereo not drawn)

>  <EXPERIMENTAL_VALUE>
> 10 µM

$$$$
>  <MOLECULE>
C[C@@H]1CNC[C@H](C)N1c1ccc(-c2cnc3c(-c4cccc5c(S(=O)(=O)N(C)C)cccc45)cnn3c2)cc1

>  <EXPERIMENTAL_VALUE>
> 10 µM

$$$$
